Consider the following compounds; for each one, report its PRE Application IPOHE herbicidal damage (five point scale).
tested on: Ipomoea hederacea (IPOHE); experiment: Pre-emergence herbicidal glasshouse test on Ipomoea hederacea; format: in vivo; settings: pre-emergence; 1000 g/h; evaluated after 13 days

Inquiry: Complete the entry with PRE Application IPOHE herbicidal damage (five point scale) for `Cc1ccc(-n2cccc(-c3cnn(C)c(=O)c3O)c2=O)cc1`
Reply text: 2 (2=20-39% damage)

Inquiry: Complete the entry with PRE Application IPOHE herbicidal damage (five point scale) for `Cn1ncc(-c2ccc(S(C)(=O)=O)c3c2COC3)c(O)c1=O`
Reply text: 1 (1=0-19% damage)

Inquiry: Complete the entry with PRE Application IPOHE herbicidal damage (five point scale) for `COCc1ccc(-c2cnn(C)c(=O)c2O)c(S(C)(=O)=O)c1`
Reply text: 3 (3=40-59% damage)

Inquiry: Complete the entry with PRE Application IPOHE herbicidal damage (five point scale) for `Cc1nc(C(F)(F)F)ccc1-c1cnn(C)c(=O)c1O`
Reply text: 2 (2=20-39% damage)

Inquiry: Complete the entry with PRE Application IPOHE herbicidal damage (five point scale) for `COc1ccc(-n2cccc(-c3cnn(C)c(=O)c3O)c2=O)cc1`
Reply text: 1 (1=0-19% damage)

* * *

test system: Alopecurus myosuroides (ALOMY); assay: Post-emergence herbicidal glasshouse test on Alopecurus myosuroides; assay type: in vivo; settings: post-emergence; 1000 g/h; evaluated after 13 days
RECORDED_ENDPOINT: POST Application ALOMY herbicidal damage (five point scale)

Inquiry: Complete the entry with POST Application ALOMY herbicidal damage (five point scale) for Cn1ncc(-c2ccccc2C#N)c(O)c1=O [Compound 1.022]
Reply text: 1 (1=0-19% damage)

Inquiry: Complete the entry with POST Application ALOMY herbicidal damage (five point scale) for Cc1c(-c2c(C3CC3)nn(C)c(=O)c2O)ccc(S(C)(=O)=O)c1C1=NOCC1 [Compound 2.019]
Reply text: 5 (5=80-100% damage)

Inquiry: Complete the entry with POST Application ALOMY herbicidal damage (five point scale) for Cn1ncc(-c2ccc(C(F)(F)F)nc2S(=O)(=O)N2CCOCC2)c(O)c1=O [Compound 4.016]
Reply text: 5 (5=80-100% damage)

Inquiry: Complete the entry with POST Application ALOMY herbicidal damage (five point scale) for CS(=O)(=O)c1cc(Cl)ccc1-c1cnn(C2CC2)c(=O)c1O [Compound 2.014]
Reply text: 5 (5=80-100% damage)

Inquiry: Complete the entry with POST Application ALOMY herbicidal damage (five point scale) for Cn1ncc(-c2ccc(Cl)cc2[S+](C)[O-])c(O)c1=O (centres unmarked) [Compound 1.059]
Reply text: 5 (5=80-100% damage)

Inquiry: Complete the entry with POST Application ALOMY herbicidal damage (five point scale) for CCCn1ncc(-c2c(Cl)ccc(Cl)c2Cl)c(O)c1=O [Compound 1.128]
Reply text: 1 (1=0-19% damage)

Inquiry: Complete the entry with POST Application ALOMY herbicidal damage (five point scale) for Cn1ncc(-c2ccc(F)cc2[S+](C)[O-])c(O)c1=O (centres unmarked) [Compound 1.057]
Reply text: 5 (5=80-100% damage)

Inquiry: Complete the entry with POST Application ALOMY herbicidal damage (five point scale) for Cn1ncc(-n2cccc(-c3ccc(C(F)(F)F)cc3)c2=O)c(O)c1=O [Compound 7.001]
Reply text: 2 (2=20-39% damage)

Inquiry: Complete the entry with POST Application ALOMY herbicidal damage (five point scale) for Cn1ncc(-c2ccc(C(F)(F)F)cc2S(=O)(=O)N2CCOCC2)c(O)c1=O [Compound 2.049]
Reply text: 1 (1=0-19% damage)

Inquiry: Complete the entry with POST Application ALOMY herbicidal damage (five point scale) for Cc1cc(-c2cnn(C)c(=O)c2O)c(C)c2c1S(=O)(=O)CCC21OCCO1 [Compound 1.031]
Reply text: 2 (2=20-39% damage)

Inquiry: Complete the entry with POST Application ALOMY herbicidal damage (five point scale) for Cn1nc([N+](=O)[O-])c(-c2ccc(C(F)(F)F)cc2S(C)(=O)=O)c(O)c1=O [Compound 2.022]
Reply text: 5 (5=80-100% damage)

Inquiry: Complete the entry with POST Application ALOMY herbicidal damage (five point scale) for CCn1ncc(-c2ccc(Cl)cc2S(C)(=O)=O)c(O)c1=O [Compound 2.017]
Reply text: 5 (5=80-100% damage)

Inquiry: Complete the entry with POST Application ALOMY herbicidal damage (five point scale) for Cn1ncc(-c2cccn(CC(F)(F)F)c2=O)c(O)c1=O [Compound 9.005]
Reply text: 1 (1=0-19% damage)

Inquiry: Complete the entry with POST Application ALOMY herbicidal damage (five point scale) for CCCS(=O)(=O)Oc1c(-c2ccc(C(F)(F)F)cc2S(C)(=O)=O)cnn(C)c1=O [Compound 3.005]
Reply text: 5 (5=80-100% damage)

Inquiry: Complete the entry with POST Application ALOMY herbicidal damage (five point scale) for CN(C)c1nc(C(F)(F)F)ccc1-c1cnn(C)c(=O)c1O [Compound 1.134]
Reply text: 1 (1=0-19% damage)

Inquiry: Complete the entry with POST Application ALOMY herbicidal damage (five point scale) for Cn1ncc(-c2cccnc2OCC(F)F)c(O)c1=O [Compound 4.011]
Reply text: 1 (1=0-19% damage)

Inquiry: Complete the entry with POST Application ALOMY herbicidal damage (five point scale) for Cc1cc(-c2cnn(C)c(=O)c2O)c(=O)n(-c2ccsc2)c1 [Compound 6.002]
Reply text: 1 (1=0-19% damage)

Inquiry: Complete the entry with POST Application ALOMY herbicidal damage (five point scale) for Cn1ncc(-c2ccc(C(F)(F)F)n(C)c2=O)c(O)c1=O [Compound 9.010]
Reply text: 2 (2=20-39% damage)

Inquiry: Complete the entry with POST Application ALOMY herbicidal damage (five point scale) for Cn1ncc(-n2ccc(C(F)(F)F)c(-c3ccc(C(F)(F)F)nc3)c2=O)c(O)c1=O [Compound 7.010]
Reply text: 5 (5=80-100% damage)

Inquiry: Complete the entry with POST Application ALOMY herbicidal damage (five point scale) for Cc1cc(-c2cnn(C)c(=O)c2O)c(=O)n(-c2ccccc2)c1 [Compound 6.001]
Reply text: 3 (3=40-59% damage)

Inquiry: Complete the entry with POST Application ALOMY herbicidal damage (five point scale) for Cn1ncc(-c2ccc(S(C)(=O)=O)c(Cl)c2Cl)c(O)c1=O [Compound 1.050]
Reply text: 2 (2=20-39% damage)

Inquiry: Complete the entry with POST Application ALOMY herbicidal damage (five point scale) for Cn1ncc(-c2ccc(OCC(F)(F)F)cc2S(C)(=O)=O)c(O)c1=O [Compound 2.030]
Reply text: 5 (5=80-100% damage)

Inquiry: Complete the entry with POST Application ALOMY herbicidal damage (five point scale) for Cn1ncc(-c2cc(F)ccc2Cl)c(O)c1=O [Compound 1.086]
Reply text: 1 (1=0-19% damage)

Inquiry: Complete the entry with POST Application ALOMY herbicidal damage (five point scale) for Cc1c(-c2cnn(C3CCCC3)c(=O)c2O)ccc(S(C)(=O)=O)c1C1=NOCC1 [Compound 1.007]
Reply text: 4 (4=60-79% damage)

Inquiry: Complete the entry with POST Application ALOMY herbicidal damage (five point scale) for Cn1ncc(-n2ccc(C(F)(F)F)c(-c3cccc(S(C)(=O)=O)c3)c2=O)c(O)c1=O [Compound 7.023]
Reply text: 1 (1=0-19% damage)

Inquiry: Complete the entry with POST Application ALOMY herbicidal damage (five point scale) for CC(C)c1cccc(-c2c(C(F)(F)F)ccn(-c3cnn(C)c(=O)c3O)c2=O)c1 [Compound 7.014]
Reply text: 1 (1=0-19% damage)

Inquiry: Complete the entry with POST Application ALOMY herbicidal damage (five point scale) for Cn1ncc(-c2ccccc2S(=O)(=O)C(F)(F)F)c(O)c1=O [Compound 1.056]
Reply text: 5 (5=80-100% damage)

Inquiry: Complete the entry with POST Application ALOMY herbicidal damage (five point scale) for C=C(C)c1nn(C)c(=O)c(O)c1-c1ccc(S(C)(=O)=O)c(C2=NOCC2)c1C [Compound 2.023]
Reply text: 5 (5=80-100% damage)

Inquiry: Complete the entry with POST Application ALOMY herbicidal damage (five point scale) for Cn1ncc(-n2ccc(C(F)(F)F)c(-c3ccc(C#N)cc3)c2=O)c(O)c1=O [Compound 7.031]
Reply text: 5 (5=80-100% damage)

Inquiry: Complete the entry with POST Application ALOMY herbicidal damage (five point scale) for Cc1ccc(-c2cnn(C)c(=O)c2O)c(Cl)c1 [Compound 1.098]
Reply text: 1 (1=0-19% damage)

Inquiry: Complete the entry with POST Application ALOMY herbicidal damage (five point scale) for Cc1ccccc1-c1c(C(F)(F)F)ccn(-c2cnn(C)c(=O)c2O)c1=O [Compound 1.053]
Reply text: 5 (5=80-100% damage)

Inquiry: Complete the entry with POST Application ALOMY herbicidal damage (five point scale) for Cn1ncc(-c2ccc(S(C)(=O)=O)c(OCC(F)(F)F)c2Cl)c(O)c1=O [Compound 1.137]
Reply text: 1 (1=0-19% damage)

Inquiry: Complete the entry with POST Application ALOMY herbicidal damage (five point scale) for Cn1ncc(-c2c(Cl)cccc2Cl)c(O)c1=O [Compound 1.118]
Reply text: 1 (1=0-19% damage)

Inquiry: Complete the entry with POST Application ALOMY herbicidal damage (five point scale) for Cn1ncc(-c2ccc(C(F)(F)F)nc2OCc2cccc(Cl)c2)c(O)c1=O [Compound 4.009]
Reply text: 1 (1=0-19% damage)

Inquiry: Complete the entry with POST Application ALOMY herbicidal damage (five point scale) for C#Cn1ncc(-c2ccc(Cl)cc2S(C)(=O)=O)c(O)c1=O [Compound 2.011]
Reply text: 5 (5=80-100% damage)
